- Test system: K. pneumoniae CQ4921
- Assay name: Broth microdilution MIC/MBC, glycosides with or without polymyxins
- Type: cell-based, Klebsiella pneumoniae
- Recorded conditions: PMB 0.5 μg/mL; strain C
I'd appreciate it if you could supply MIC of compound in combination with PMB values for the items below.
Write it as a number; the unit µg/mL goes unstated.

Form field - read-out: MIC of compound in combination with PMB; system: K. pneumoniae CQ4921; submitted item: CCCCCCCCCCCCO[C@@H]1C[C@@H](O)[C@H](O)[C@@H](CO)O1 [Compound 4]
1.6

Form field - read-out: MIC of compound in combination with PMB; system: K. pneumoniae CQ4921; submitted item: CCCCCCCCCCCC[C@H]1O[C@H](C)C[C@H](O)[C@H]1O [Compound 5]
1.6

Form field - read-out: MIC of compound in combination with PMB; system: K. pneumoniae CQ4921; submitted item: CCCCCCCCCCCCO[C@H]1O[C@H](C)C[C@H](O)[C@H]1O [Compound 1]
1.6
